Data provenance is paper PMC3004370.

- Measurement Target: p110γ (Homo sapiens, UniProt P48736)
- Construct: His-tag
- Sequence (P48736 whole entry): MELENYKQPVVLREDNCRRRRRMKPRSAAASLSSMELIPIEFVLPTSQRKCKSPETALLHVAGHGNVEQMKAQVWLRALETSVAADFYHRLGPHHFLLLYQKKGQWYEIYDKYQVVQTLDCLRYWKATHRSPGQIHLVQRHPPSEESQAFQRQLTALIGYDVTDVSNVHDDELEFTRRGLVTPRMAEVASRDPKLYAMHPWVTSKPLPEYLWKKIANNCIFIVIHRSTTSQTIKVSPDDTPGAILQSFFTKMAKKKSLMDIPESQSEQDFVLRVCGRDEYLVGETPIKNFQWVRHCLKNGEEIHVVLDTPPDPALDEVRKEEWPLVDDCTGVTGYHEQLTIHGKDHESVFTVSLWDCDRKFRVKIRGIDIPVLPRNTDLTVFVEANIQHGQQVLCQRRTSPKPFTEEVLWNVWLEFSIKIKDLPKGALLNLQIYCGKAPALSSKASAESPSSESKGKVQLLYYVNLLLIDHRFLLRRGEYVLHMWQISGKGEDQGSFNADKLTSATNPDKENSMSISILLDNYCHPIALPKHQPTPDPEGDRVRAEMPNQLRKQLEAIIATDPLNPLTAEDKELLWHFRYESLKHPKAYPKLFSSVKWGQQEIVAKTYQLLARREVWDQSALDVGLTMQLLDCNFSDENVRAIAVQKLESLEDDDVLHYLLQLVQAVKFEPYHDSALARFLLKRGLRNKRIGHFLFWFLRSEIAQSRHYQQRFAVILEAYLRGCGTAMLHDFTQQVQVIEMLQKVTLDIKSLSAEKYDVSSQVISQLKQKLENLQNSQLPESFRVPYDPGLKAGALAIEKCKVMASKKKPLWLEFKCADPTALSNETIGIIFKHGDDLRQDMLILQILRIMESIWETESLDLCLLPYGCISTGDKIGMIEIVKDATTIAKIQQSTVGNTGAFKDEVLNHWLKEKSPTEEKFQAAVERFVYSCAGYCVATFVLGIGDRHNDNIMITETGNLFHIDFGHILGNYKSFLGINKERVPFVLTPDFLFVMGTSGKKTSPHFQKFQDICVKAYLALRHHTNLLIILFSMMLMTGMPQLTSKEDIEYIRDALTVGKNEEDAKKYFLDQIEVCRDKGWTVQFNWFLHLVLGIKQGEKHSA
- Assay Remarks: Biochemical PI3K inhibition assay, p110γ
- Setup Conditions: 10 μM ATP, two hours; no regulatory subunit
Observed Property: pIC50
Numbers only, as −log10 of the molar value.

In the examples that follow, each entry is paired with its recorded pIC50.
[
  {
    "Molecular String": "CCN(/N=C/c1cnc2ccc(Br)cn12)C(=O)c1cc([N+](=O)[O-])ccc1C",
    "Measurement Target": "p110γ (Homo sapiens, UniProt P48736)",
    "pIC50": 6.88
  },
  {
    "Molecular String": "CCN(/N=C/c1cnc2ccc(Br)cn12)S(=O)(=O)c1cc([N+](=O)[O-])c(NCCOCCO)cc1C",
    "Measurement Target": "p110γ (Homo sapiens, UniProt P48736)",
    "pIC50": 6.70
  },
  {
    "Molecular String": "CCN(/N=C/c1cnc2ccc(Br)cn12)S(=O)(=O)c1cc([N+](=O)[O-])ccc1C",
    "Measurement Target": "p110γ (Homo sapiens, UniProt P48736)",
    "pIC50": 6.21
  }
]

Provide pIC50, tested on p110γ (Homo sapiens, UniProt P48736), for `CCN(/N=C/c1cnc2ccc(Br)cn12)S(=O)(=O)c1ccccc1C` .
3.74

----------
- Measurement Target: p110α (Homo sapiens)
- Sequence (P42336 whole entry): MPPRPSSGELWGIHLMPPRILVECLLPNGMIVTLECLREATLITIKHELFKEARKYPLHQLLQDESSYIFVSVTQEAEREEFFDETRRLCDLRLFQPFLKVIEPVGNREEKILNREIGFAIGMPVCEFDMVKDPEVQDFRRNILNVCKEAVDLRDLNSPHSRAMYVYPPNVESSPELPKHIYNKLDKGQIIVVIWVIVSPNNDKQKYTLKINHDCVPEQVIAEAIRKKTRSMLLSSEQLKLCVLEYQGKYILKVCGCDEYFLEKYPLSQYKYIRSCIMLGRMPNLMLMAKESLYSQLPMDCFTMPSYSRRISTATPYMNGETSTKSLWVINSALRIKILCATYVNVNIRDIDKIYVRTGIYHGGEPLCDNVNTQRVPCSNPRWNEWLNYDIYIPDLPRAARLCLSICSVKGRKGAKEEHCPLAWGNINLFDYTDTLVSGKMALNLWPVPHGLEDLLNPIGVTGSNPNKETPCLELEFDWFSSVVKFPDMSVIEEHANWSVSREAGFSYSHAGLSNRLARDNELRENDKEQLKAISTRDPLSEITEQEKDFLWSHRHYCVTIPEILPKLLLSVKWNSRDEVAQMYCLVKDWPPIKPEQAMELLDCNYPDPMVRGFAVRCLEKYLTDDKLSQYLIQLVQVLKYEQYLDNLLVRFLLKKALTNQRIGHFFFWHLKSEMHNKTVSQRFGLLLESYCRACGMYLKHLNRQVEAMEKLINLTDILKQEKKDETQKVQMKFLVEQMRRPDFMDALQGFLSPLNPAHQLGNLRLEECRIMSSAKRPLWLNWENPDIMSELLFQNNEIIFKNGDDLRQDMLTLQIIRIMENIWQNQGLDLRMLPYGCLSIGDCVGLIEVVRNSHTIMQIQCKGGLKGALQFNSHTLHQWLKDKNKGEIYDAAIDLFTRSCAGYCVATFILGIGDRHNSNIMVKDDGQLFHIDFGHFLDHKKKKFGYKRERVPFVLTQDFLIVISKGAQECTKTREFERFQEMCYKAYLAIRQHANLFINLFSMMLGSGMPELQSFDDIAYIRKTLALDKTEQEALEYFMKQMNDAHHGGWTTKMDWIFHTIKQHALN
- Sequence (P27986 322-600 partner limits assumed): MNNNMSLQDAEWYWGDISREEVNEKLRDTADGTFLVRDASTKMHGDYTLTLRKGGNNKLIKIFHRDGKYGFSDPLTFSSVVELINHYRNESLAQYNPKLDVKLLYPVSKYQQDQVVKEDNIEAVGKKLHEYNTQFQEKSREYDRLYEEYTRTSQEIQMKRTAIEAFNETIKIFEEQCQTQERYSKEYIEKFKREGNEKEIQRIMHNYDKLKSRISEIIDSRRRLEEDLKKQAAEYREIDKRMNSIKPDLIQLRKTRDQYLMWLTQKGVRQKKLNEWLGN
Observed Property: log10 IC50 (log10 of the value in µM)
Quick note: numbers are log10 of IC50, with µM as the unit.

[
  {
    "Molecular String": "CCN(/N=C/c1cnc2ccc(Br)cn12)S(=O)(=O)c1cc([N+](=O)[O-])c(NCC(=O)OC)cc1C",
    "Measurement Target": "p110α (Homo sapiens)",
    "log10 IC50": -1.48
  },
  {
    "Molecular String": "CCN(/N=C/c1cnc2ccc(Br)cn12)S(=O)(=O)c1cc(C(N)=O)ccc1Cl",
    "Measurement Target": "p110α (Homo sapiens)",
    "log10 IC50": -1.12
  },
  {
    "Molecular String": "CCN(/N=C/c1cnc2ccc(Br)cn12)S(=O)(=O)c1cc(C(=O)O)ccc1C",
    "Measurement Target": "p110α (Homo sapiens)",
    "log10 IC50": -0.92
  }
]

Please give log10 IC50 for each item listed below.
1. CCN(/N=C/c1cnc2ccc(Br)cn12)S(=O)(=O)c1ccccc1C
2. CCN(/N=C/c1cnc2ccc(Br)cn12)S(=O)(=O)c1cc(N)ccc1C

[1.30, 0.64]

----------
- Measurement Target: p110γ (Homo sapiens, UniProt P48736)
- Construct: His-tag
- Assay Remarks: Biochemical PI3K inhibition assay, p110γ
- Setup Conditions: 10 μM ATP, two hours; no regulatory subunit
Observed Property: pIC50
Give bare numbers, as −log10 of the molar value.

A selection of reference data follows.
[
  {
    "Compound": "CCN(/N=C/c1cnc2ccc(Br)cn12)S(=O)(=O)c1cc(C(=O)O)ccc1C",
    "Observed Property": "pIC50",
    "Readout Value": 5.29
  },
  {
    "Compound": "CCN(/N=C/c1cnc2ccc(Br)cn12)S(=O)(=O)c1cc([N+](=O)[O-])ccc1Cl",
    "Observed Property": "pIC50",
    "Readout Value": 6.09
  },
  {
    "Compound": "CCN(/N=C/c1cnc2ccc(Br)cn12)S(=O)(=O)c1cc([N+](=O)[O-])c(NC(=O)C(F)(F)F)cc1C",
    "Observed Property": "pIC50",
    "Readout Value": 6.42
  }
]

Hey, can you go through the list below and give me pIC50 for every item?
1. CCN(/N=C/c1cnc2ccc(Br)cn12)S(=O)(=O)c1cc([N+](=O)[O-])c(NCCO)cc1C
2. CCN(/N=C/c1cnc2ccc(Br)cn12)S(=O)(=O)c1cc([N+](=O)[O-])c(N)cc1Cl
3. CCN(/N=C/c1cnc2ccc(Br)cn12)S(=O)(=O)c1cc([N+](=O)[O-])c(F)cc1C
4. CCN(/N=C/c1cnc2ccc(Br)cn12)S(=O)(=O)c1cc([N+](=O)[O-])c(NC(C)C(=O)O)cc1C (stereo not drawn)
5. CCN(/N=C/c1cnc2ccc(Br)cn12)S(=O)(=O)c1cc([N+](=O)[O-])c(NCC(N)=O)cc1C
6. Cc1ccc([N+](=O)[O-])cc1S(=O)(=O)N(CCC#N)/N=C/c1cnc2ccc(Br)cn12

1. 6.68
2. 6.60
3. 5.74
4. 6.85
5. 7.13
6. 6.72
